// provenance: PubChem BioAssay (NCI)

Kindly supply the reported TGI values for the records listed here.
system: HOP-62 NSCLC; assay: NCI tumour cell line growth inhibition, 384-well format
// return numeric value only (unit: µM, not printed)

So what's the measured TGI for this one? "Cc1ccc(S(=O)(=O)Cc2nc(-c3ccc(C(=O)NCc4cccnc4)cc3)oc2C)cc1"
0.0119

So what's the measured TGI for this one? "N[C@@H]1CCCN(c2c(/C=C3\SC(=O)NC3=O)cccc2-c2ccccc2)C1"
23.9

So what's the measured TGI for this one? "Cc1c(NC(=O)OC[C@@H]2COCCN2)cn2ncnc(Nc3ccc4c(cnn4Cc4cccc(F)c4)c3)c12"
9.3

So what's the measured TGI for this one? "c1ccc(Cn2c(-c3ccc(OC[C@H](C4CCNCC4)n4c(-c5ccccc5)nc5ccccc54)cc3)nc3ccccc32)cc1"
3.46

----------
test system: COLO 205 colon; assay: NCI tumour cell line growth inhibition, 384-well format; in the data active = GI50 below about 0.43 µM; inactive = the rest
Give your call using only these classes: active, inactive

Please let me know the test result on file for "COc1ccccc1S(=O)(=O)Nc1ccc2c(c1)CN(C)C(=O)N2" .
active

Please let me know the test result on file for "Cc1c(NC(=O)OC[C@@H]2COCCN2)cn2ncnc(Nc3ccc4c(cnn4Cc4cccc(F)c4)c3)c12" .
inactive

Please let me know the test result on file for "Cc1ccc(S(=O)(=O)Cc2nc(-c3ccc(C(=O)NCc4cccnc4)cc3)oc2C)cc1" .
active

Please let me know the test result on file for "O=C(O)c1ccc2c(c1)nc(Nc1cccc(Cl)c1)c1ccncc12" .
inactive

----------
Kindly supply the reported GI50 values for the records listed here.
tested on: LOX IMVI melanoma; test: NCI tumour cell line growth inhibition, 384-well format

So what's the measured GI50 for this one? "Cc1c(NC(=O)OC[C@@H]2COCCN2)cn2ncnc(Nc3ccc4c(cnn4Cc4cccc(F)c4)c3)c12"
1.7 µM

So what's the measured GI50 for this one? "N[C@@H]1CCCN(c2c(/C=C3\SC(=O)NC3=O)cccc2-c2ccccc2)C1"
17.8 µM

So what's the measured GI50 for this one? "c1ccc(Cn2c(-c3ccc(OC[C@H](C4CCNCC4)n4c(-c5ccccc5)nc5ccccc54)cc3)nc3ccccc32)cc1"
2.33 µM

So what's the measured GI50 for this one? "CN(C[C@@H]1COCCO1)S(=O)(=O)Nc1ccc2ccc3ncc(-c4cnn(C)c4)cc3c(=O)c2c1"
5.53 µM

----------
Kindly supply the reported TGI values for the records listed here.
test system: MDA-MB-468 breast; assay: NCI tumour cell line growth inhibition, 384-well format
// return numeric value only (unit: nM, not printed)

So what's the measured TGI for this one? "CN(C[C@@H]1COCCO1)S(=O)(=O)Nc1ccc2ccc3ncc(-c4cnn(C)c4)cc3c(=O)c2c1"
5200

So what's the measured TGI for this one? "O=C(O)c1ccc2c(c1)nc(Nc1cccc(Cl)c1)c1ccncc12"
2050

So what's the measured TGI for this one? "Cc1ccc(S(=O)(=O)Cc2nc(-c3ccc(C(=O)NCc4cccnc4)cc3)oc2C)cc1"
26.1

So what's the measured TGI for this one? "c1ccc(Cn2c(-c3ccc(OC[C@H](C4CCNCC4)n4c(-c5ccccc5)nc5ccccc54)cc3)nc3ccccc32)cc1"
3390

----------
test system: KM12 colon; test: NCI tumour cell line growth inhibition, 384-well format
REPORTED ENDPOINT: log10 of TGI (log10 of the value in µM)
Please note: log10 values; quantity TGI; unit µM.

Hi! What's the reported log10 of TGI for "Cc1c(NC(=O)OC[C@@H]2COCCN2)cn2ncnc(Nc3ccc4c(cnn4Cc4cccc(F)c4)c3)c12" on KM12 colon?
1.13

Hi! What's the reported log10 of TGI for "c1ccc(Cn2c(-c3ccc(OC[C@H](C4CCNCC4)n4c(-c5ccccc5)nc5ccccc54)cc3)nc3ccccc32)cc1" on KM12 colon?
0.51

Hi! What's the reported log10 of TGI for "COc1ccccc1S(=O)(=O)Nc1ccc2c(c1)CN(C)C(=O)N2" on KM12 colon?
-1.15

Hi! What's the reported log10 of TGI for "N[C@@H]1CCCN(c2c(/C=C3\SC(=O)NC3=O)cccc2-c2ccccc2)C1" on KM12 colon?
1.49

Hi! What's the reported log10 of TGI for O=C(O)C1(Cc2cccc(Nc3nccs3)n2)CCC(Oc2cccc(Cl)c2F)CC1 (stereo unspecified) on KM12 colon?
1.21

----------
Kindly supply the reported GI50 values for the records listed here.
test system: HCT-116 colon; assay: NCI tumour cell line growth inhibition, 384-well format

So what's the measured GI50 for this one? "COc1ccccc1S(=O)(=O)Nc1ccc2c(c1)CN(C)C(=O)N2"
14.5 nM

So what's the measured GI50 for this one? "N[C@@H]1CCCN(c2c(/C=C3\SC(=O)NC3=O)cccc2-c2ccccc2)C1"
15400 nM

So what's the measured GI50 for this one? "Cc1c(NC(=O)OC[C@@H]2COCCN2)cn2ncnc(Nc3ccc4c(cnn4Cc4cccc(F)c4)c3)c12"
2350 nM

So what's the measured GI50 for this one? "c1ccc(Cn2c(-c3ccc(OC[C@H](C4CCNCC4)n4c(-c5ccccc5)nc5ccccc54)cc3)nc3ccccc32)cc1"
1450 nM

----------
test system: BT-549 breast; assay: NCI tumour cell line growth inhibition, 384-well format
Kindly supply the reported GI50 values for the records listed here.

So what's the measured GI50 for this one? "N[C@@H]1CCCN(c2c(/C=C3\SC(=O)NC3=O)cccc2-c2ccccc2)C1"
1.9 µM

So what's the measured GI50 for this one? O=C(O)C1(Cc2cccc(Nc3nccs3)n2)CCC(Oc2cccc(Cl)c2F)CC1 (centres undefined)
0.573 µM

So what's the measured GI50 for this one? "c1ccc(Cn2c(-c3ccc(OC[C@H](C4CCNCC4)n4c(-c5ccccc5)nc5ccccc54)cc3)nc3ccccc32)cc1"
1.7 µM

So what's the measured GI50 for this one? "CN(C[C@@H]1COCCO1)S(=O)(=O)Nc1ccc2ccc3ncc(-c4cnn(C)c4)cc3c(=O)c2c1"
2.1 µM

----------
test system: SF-539 CNS; assay: NCI tumour cell line growth inhibition, 384-well format; in the data active means GI50 below about 0.43 µM; inactive means the rest
Give your call using only these classes: active, inactive

Please let me know the test result on file for "CN(C[C@@H]1COCCO1)S(=O)(=O)Nc1ccc2ccc3ncc(-c4cnn(C)c4)cc3c(=O)c2c1" .
inactive

Please let me know the test result on file for "Cc1c(NC(=O)OC[C@@H]2COCCN2)cn2ncnc(Nc3ccc4c(cnn4Cc4cccc(F)c4)c3)c12" .
inactive

Please let me know the test result on file for "O=C(O)c1ccc2c(c1)nc(Nc1cccc(Cl)c1)c1ccncc12" .
inactive

Please let me know the test result on file for "N[C@@H]1CCCN(c2c(/C=C3\SC(=O)NC3=O)cccc2-c2ccccc2)C1" .
inactive

Please let me know the test result on file for "Cc1ccc(S(=O)(=O)Cc2nc(-c3ccc(C(=O)NCc4cccnc4)cc3)oc2C)cc1" .
active

Please let me know the test result on file for "c1ccc(Cn2c(-c3ccc(OC[C@H](C4CCNCC4)n4c(-c5ccccc5)nc5ccccc54)cc3)nc3ccccc32)cc1" .
inactive

----------
system: EKVX NSCLC; test: NCI tumour cell line growth inhibition, 384-well format
Kindly supply the reported GI50 values for the records listed here.

So what's the measured GI50 for this one? "N[C@@H]1CCCN(c2c(/C=C3\SC(=O)NC3=O)cccc2-c2ccccc2)C1"
16.4 µM

So what's the measured GI50 for this one? "O=C(O)c1ccc2c(c1)nc(Nc1cccc(Cl)c1)c1ccncc12"
1.48 µM

So what's the measured GI50 for this one? "CN(C[C@@H]1COCCO1)S(=O)(=O)Nc1ccc2ccc3ncc(-c4cnn(C)c4)cc3c(=O)c2c1"
16.2 µM

So what's the measured GI50 for this one? "Cc1c(NC(=O)OC[C@@H]2COCCN2)cn2ncnc(Nc3ccc4c(cnn4Cc4cccc(F)c4)c3)c12"
1.02 µM

----------
test system: IGROV1 ovarian; experiment: NCI tumour cell line growth inhibition, 384-well format
REPORTED ENDPOINT: TGI (µM)
// return numeric value only (unit: µM, not printed)

So what's the measured TGI for this one? "Cc1ccc(S(=O)(=O)Cc2nc(-c3ccc(C(=O)NCc4cccnc4)cc3)oc2C)cc1"
0.0237

So what's the measured TGI for this one? "O=C(O)c1ccc2c(c1)nc(Nc1cccc(Cl)c1)c1ccncc12"
4.64

So what's the measured TGI for this one? "COc1ccccc1S(=O)(=O)Nc1ccc2c(c1)CN(C)C(=O)N2"
73.6

So what's the measured TGI for this one? "N[C@@H]1CCCN(c2c(/C=C3\SC(=O)NC3=O)cccc2-c2ccccc2)C1"
31.2

So what's the measured TGI for this one? "CN(C[C@@H]1COCCO1)S(=O)(=O)Nc1ccc2ccc3ncc(-c4cnn(C)c4)cc3c(=O)c2c1"
9

----------
tested on: MDA-MB-231 breast; test: NCI tumour cell line growth inhibition, 384-well format; in the data active means GI50 below about 0.43 µM; inactive means the rest
Give your call using only these classes: active, inactive

Please let me know the test result on file for O=C(O)C1(Cc2cccc(Nc3nccs3)n2)CCC(Oc2cccc(Cl)c2F)CC1 (centres undefined) .
inactive

Please let me know the test result on file for "Cc1c(NC(=O)OC[C@@H]2COCCN2)cn2ncnc(Nc3ccc4c(cnn4Cc4cccc(F)c4)c3)c12" .
inactive

Please let me know the test result on file for "c1ccc(Cn2c(-c3ccc(OC[C@H](C4CCNCC4)n4c(-c5ccccc5)nc5ccccc54)cc3)nc3ccccc32)cc1" .
inactive

Please let me know the test result on file for "COc1ccccc1S(=O)(=O)Nc1ccc2c(c1)CN(C)C(=O)N2" .
active
